assay: Dynamic light scattering (DLS); type: physicochemical; details: Table 4; 50 mM KPi, at the concentration under DLS conc.
Recorded DLS Diameter by entry
ASSAY ENDPOINT: DLS Diameter

> print(dat)
                                   compound      measurement
1      CC(C)c1ccc(/C=C2/C(=O)Nc3ccccc32)cc1  379.0 ± 14.1 nm
2  O=C1O/C(=C\Nc2ccc(Oc3ccccc3)cc2)c2ccccc21 [drawing 41]    94.7 ± 4.2 nm
3  Oc1ccc(/N=N/c2ccc(Br)cc2)cc1 [drawing 40]   176.2 ± 7.9 nm
4  O=C(N/N=C/c1ccccc1O)C(=O)N/N=C/c1ccccc1O  394.6 ± 12.5 nm
5  O=C1C(I)=CC(=C(c2cc(I)c(O)c(I)c2)c2ccccc2C(=O)O)C=C1I  153.4 ± 26.0 nm
6  O=C1C2C(C(=O)N1Nc1ccc([N+](=O)[O-])cc1[N+](=O)[O-])[C@@]1(Cl)C(Cl)=C(Cl)[C@]2(Cl)C1(Cl)Cl (stereo partly shown)  418.6 ± 38.8 nm
